# study_target: gp120 glycoprotein of HIV-1 strain MN (HIV-1 strain MN, UniProt P05877 32-513, limits assumed)
# measurement_notes: cell-based or functional assay
Kindly return true (1) if reported Neutralization Titer (ng/ml), syncytium assay, HIV-1 MN is no lower than 20 ng/mL; return false (0) if it is lower.

Examples with answers:
{"columns": ["binder", "label"],
 "data": [
  ["Fab 3b3 (Fab, V domains shown) VH: LEQSGAEVKKPGASVKVSCQASGYRFSNFTVHWVRQAPGQRFEWMGWINPYNGNKEFSAKFQDRVTFTADTSANTAYMELRSLRSADTAVYYCARVGEWGWDDSPQDNYYMDVWGKGTTVIVSS VL: ELTQSPGTLSLSPGERATFSCRSSHSIRSRRVAWYQHKPGQAPRLVIHGVSNRASGISDRFSGSGSGTDFTLTITRVEPEDFALYYCQVYGASSYTFGQGTKLERKR", "false (0)"],
  ["Fab 3b4 (Fab, V domains shown) VH: LEQSGAEVKKPGASVKVSCQASGYRFSNYTLIWVRQAPGQRFEWMGWINPYNGNKEFSAKFQDRVTFTADTSANTAYMELRSLRSADTAVYYCARVGPWNWDSPQDNYYMDVWGKGTTVIVSS VL: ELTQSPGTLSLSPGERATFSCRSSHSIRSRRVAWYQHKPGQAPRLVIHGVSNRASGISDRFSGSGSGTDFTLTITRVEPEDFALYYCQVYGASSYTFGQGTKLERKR", "false (0)"],
  ["Fab 3b1 (Fab, V domains shown) VH: LEQSGAEVKKPGASVKVSCQASGYRFSNFTLMWVRQAPGQRFEWMGWINPYNGNKEFSAKFQDRVTFTADTSANTAYMELRSLRSADTAVYYCARVGQWNWDDSPQDNYYMDVWGKGTTVIVSS VL: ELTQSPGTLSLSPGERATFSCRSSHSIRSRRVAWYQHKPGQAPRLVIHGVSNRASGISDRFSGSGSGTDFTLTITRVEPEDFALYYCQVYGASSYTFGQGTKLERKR", "false (0)"],
  ["Fab MT4 (Fab, V domains shown, also called Fab 4; 4H (heavy chain)) VH: LEQSGAEVKKPGASVKVSCQASGYRFSNFVIHWVRQAPGQRFEWMGWINPYNGNKEFSAKFQDRVTFTADTSANTAYMELRSLRSADTAVYYCARVGPYSWDDSPQDNYYMDVWGKGTTVIVSS VL: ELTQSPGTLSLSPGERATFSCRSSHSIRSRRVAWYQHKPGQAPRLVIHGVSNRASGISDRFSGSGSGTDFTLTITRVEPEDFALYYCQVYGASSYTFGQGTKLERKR", "true (1)"]
]}

Now look at this entry.
[Q] Is Neutralization Titer (ng/ml), syncytium assay, HIV-1 MN for Fab 3b9 (Fab, V domains shown) VH: LEQSGAEVKKPGASVKVSCQASGYRFSNFTVHWVRQAPGQRFEWMGWINPYNGNKEFSAKFQDRVTFTADTSANTAYMELRSLRSADTAVYYCARVGPWRWDDSPQDNYYMDVWGKGTIVIVSS VL: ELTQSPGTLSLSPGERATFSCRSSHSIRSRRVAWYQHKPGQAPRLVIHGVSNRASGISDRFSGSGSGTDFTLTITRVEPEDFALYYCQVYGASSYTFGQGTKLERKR at or above 20 ng/mL?
[A] false (0)

Data credit: patent US6395275
